- Study target: human dopamine D4 receptor subtype (Homo sapiens, UniProt P21917)
- Sequence (P21917 whole entry): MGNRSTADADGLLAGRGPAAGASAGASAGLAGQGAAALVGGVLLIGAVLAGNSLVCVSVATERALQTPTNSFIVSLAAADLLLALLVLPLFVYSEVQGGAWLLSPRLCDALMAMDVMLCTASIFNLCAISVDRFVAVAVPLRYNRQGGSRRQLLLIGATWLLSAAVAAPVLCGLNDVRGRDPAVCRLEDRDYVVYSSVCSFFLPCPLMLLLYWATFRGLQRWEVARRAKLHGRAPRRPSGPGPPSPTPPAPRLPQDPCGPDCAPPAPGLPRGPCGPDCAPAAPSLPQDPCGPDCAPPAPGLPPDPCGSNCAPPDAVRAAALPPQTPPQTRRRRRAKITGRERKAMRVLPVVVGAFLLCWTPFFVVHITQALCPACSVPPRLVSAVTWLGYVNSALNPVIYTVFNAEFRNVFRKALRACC
pKi: −log10 of the molar value. Counter-ions that a name gives are not always drawn.

{"Compound": "C1=C(/C=C/c2ccccc2)CCN(Cc2coc3ccccc23)C1 [Example 1, methanesulfonate salt]", "pKi": "> 5.82"}

Cited source for all entries: patent US5681836A
